Sourced from PubChem BioAssay (NCI)

System: HS 578T breast
Experiment: NCI tumour cell line growth inhibition, 48 h
outcome-measure: TGI

Answered examples (3):
O=C(O)/C(=C/C(=O)c1ccc(Cl)cc1)NNc1ccc([N+](=O)[O-])cc1[N+](=O)[O-] | 94.4 µM
Nc1nc2c(c3ncccc13)C(c1cccc(Br)c1)Cc1ncccc1-2 (stereo not given) | 23.5 µM
CC(C)(C)OC(=O)C1C(=O)NC(=O)CC1CC(OCc1ccccc1)C(COCc1ccccc1)OCc1ccccc1 (stereo not given) | 66.6 µM

Prompt: Could you tell me which TGI is on file for `N=C(N)N=Nc1ccc(NN=C(N)N)c2c1ncc1c2nc2sccn21` ?
Response: 63.4 µM

Prompt: Would you kindly repeat that for `COc1cc(C=O)cc(/C=N/c2ccccn2)c1O` ?
Response: 70.6 µM

Prompt: Cool, now `ClCc1ccc(-c2ccc(Cn3cnc4nc(Cl)nc(Cl)c43)cc2)cc1`
Response: 40.7 µM

Prompt: Now this one: Cc1ccc(S(=O)(=O)N/N=C2\CC3C4C=CC3C2C4)cc1 (stereo not given)
Response: > 100 µM

Prompt: One more compound: CSc1ncc2c(n1)-c1ccccc1OC2N1CCCCC1 (stereo not given)
Response: 99.2 µM

Prompt: Could you do the same for Cc1cc(O)c(C=O)c2c1C(=O)Oc1c(CO)c(O)c3c(c1O2)C(O)OC3=O (stereo not given) , please?
Response: > 100 µM

Prompt: And `O=[N+]([O-])c1ccccc1S(=O)(=O)c1cc(O)cc2c1NCCC2` ?
Response: > 86.7 µM

---

Tested on: SR leukemia
Assay: NCI tumour cell line growth inhibition, 48 h
# label = bin(measured TGI), where bins are lower = under 6 µM, middle = from 6 µM up to 20 µM, upper = 20 µM and over

CC(=O)C1=C(c2ccccc2)N(C2OC(CO)C(O)C(O)C2O)C(S)=C(C#N)C1c1ccc(Cl)cc1 (stereo not given) | upper
CN(C)Cc1cc(N=Nc2ccccc2)ccc1O | upper
O=C(Nc1cccc(-n2cc(-c3ccncc3)c(-c3ccc(Cl)c(O)c3)n2)c1)Nc1ccc(Cl)c(C(F)(F)F)c1 | lower
CCOP(=O)(O)C(Nc1ccc(N=Nc2ccccc2)cc1)c1ccc(C(Nc2ccc(N=Nc3ccccc3)cc2)P(=O)(O)OCC)cc1 (stereo not given) | upper
CN(C)N=Nc1ccccc1 | upper

Prompt: # bin label for `O=C1C=CC(=O)N1C1CCCCCCCCCCC1`
Response: upper

---

System: NCI-H460 lung
Residues, ends and D or L forms follow the SMILES beside them. *: point of attachment. Boc = CC(C)(C)OC(=O)*
Permitted responses: true (1) (active), false (0) (inactive)

NCCN.NCCN.[Cl-].[O]=[Os+2]=[O] | false (0)
FC(F)(F)c1nnn[n-]1.[Au+].c1ccc([PH+](c2ccccc2)c2ccccc2)cc1 | false (0)
O=P(O)(NCCCl)NCCCl | false (0)
CCN1CCN(c2cc(C)nc(N(CCNc3ccnc4cc(Cl)ccc34)Cc3ccc4c(c3)OCO4)n2)CC1 | false (0)

Prompt: For `N=C(N)N=Nc1ccc(NN=C(N)N)c2c1ncc1c2nc2sccn21` , which call appears in the assay record?
Response: false (0)

Prompt: Field entry: `Fc1cnc(NC2CC2)nc1-c1cnc2ccc(N3CCOCC3)cn12`
Response: true (1)

Prompt: Next compound up: `O=C(/C=C/c1ccc(Cl)cc1)/C=C/c1cc2ccccc2[nH]c1=O`
Response: false (0)

Prompt: What about `C(#Cc1cnccn1)/C=C\C#Cc1cnccn1` ?
Response: false (0)

Prompt: # repeat for `O=C(Nc1ccc(CN2CCOCC2)cc1)c1ccc(-c2cc(Cl)ccc2Cl)o1`
Response: false (0)

Prompt: Also, COC(=O)CNC(=O)C(Cc1ccccc1)NC(=O)C(Cc1ccccc1)NC(=O)OC(C)(C)C (stereo not drawn) (Boc-Phe-Phe-Gly-OMe; configuration not given here) please.
Response: false (0)

Prompt: Could you do the same for `CCOC(=O)N1C/C(=C/c2ccc(F)cc2)C(=O)/C(=C/c2ccc(F)cc2)C1` , please?
Response: false (0)

Prompt: What about this compound? CCc1ccc(CNCC(O)c2ccccc2)cc1 (stereo unspecified)
Response: false (0)

Prompt: How about this compound: `COc1cc2ncn(-c3cc(O[C@H](C)c4ccccc4Cl)c(C(N)=O)s3)c2cc1OC`
Response: true (1)

Prompt: Lookup `O=NN(CCCl)C(=O)NCCCl`
Response: false (0)

Prompt: Next compound: `CCn1cc(C(=O)O)c(=O)c2cc(F)c(N3CCN(S(=O)(=O)c4ccc(Cl)cc4)CC3)cc21`
Response: false (0)

Prompt: Cool, now `O=C(N/N=C/c1ccccc1O)c1ccccc1O`
Response: false (0)

---

Test system: SF-268 CNS
Assay: NCI tumour cell line growth inhibition, 48 h
*1 amine or outer side, *2 acyl side, *3 side chain or, on linkers, in order; H or OH if unused. Where a SMILES comes first, the peptide text is derived from it. Bridges are numbered along the chain shown (N, C = ends). [ ]: non-standard residue; d: D form. Adda = CO[C@@H](Cc1ccccc1)[C@@H](C)/C=C(C)/C=C/[C@H](N[*:1])[C@H](C)C(=O)[*:2]; dAsp(3S-Me) = C[C@H](C(=O)[*:3])[C@@H](N[*:1])C(=O)[*:2]; d(γGlu) = O=C(O)[C@@H](CCC(=O)[*:2])N[*:1]; NMeDha = C=C(NC)C(=O)O
outcome-measure: GI50

These recorded examples may help you get a feel for the data.
FC(F)(F)c1nnn[n-]1.[Au+].c1ccc([PH+](c2ccccc2)c2ccccc2)cc1 | 4200 nM
C=C1C(=O)N[C@H](C)C(=O)N[C@@H](CC(C)C)C(=O)N[C@@H](C(=O)O)[C@H](C)C(=O)N[C@@H](CCCN=C(N)N)C(=O)N[C@@H](/C=C/C(C)=C/[C@H](C)[C@H](Cc2ccccc2)OC)[C@H](C)C(=O)N[C@@H](C(=O)O)CCC(=O)N1C (R[Adda][d(γGlu)][NMeDha][dA]L[dAsp(3S-Me)]-OH; lactam N-7) | > 5000 nM
CCCCN1CCN(c2ccc3nc(-c4ccc5nc(-c6ccc(OC)c(OC)c6)[nH]c5c4)[nH]c3c2)CC1 | 1350 nM
O=C1C=CC(=O)N1C1CCCCCCCCCCC1 | 19200 nM
O=c1c2cc(F)ccc2sc2c(N3CCNCC3)nc3ccccc3c12 | 1550 nM
N=C(N)N=Nc1ccc(NN=C(N)N)c2c1ncc1c2nc2sccn21 | 10700 nM
Nc1nc2c(c3ncccc13)C(c1cccc(Br)c1)Cc1ncccc1-2 (centres undefined) | 808 nM
CCOc1nc(-c2ccccc2)cc2c(O)c(C(=O)N/N=C/c3ccc(O)cc3O)[nH]c(=O)c12 | 766 nM
CN(C)CCCOc1ccc(OCCCN(C)C)c2c1C(=O)c1ccccc1C2=O | 1320 nM
CN1CCN(CCCOc2ccc3nc(Nc4cc(Cl)cc(Cl)c4)ccc3c2)CC1 | 1480 nM

Prompt: Which GI50 reading was recorded for the molecule C[C@@H]1C[N+]2([O-])[C@H]3C4=CCC[C@@H]4CC[C@H]3[C@@]3(C)OC(=O)CC[C@]34CC[C@H]1[C@@H]42 (some centres undefined) ?
Response: > 60000 nM

Prompt: And the next one, `CCOC(=O)N1C/C(=C/c2ccc(F)cc2)C(=O)/C(=C/c2ccc(F)cc2)C1` ?
Response: 2200 nM

Prompt: Try the molecule `CCn1cc(C(=O)O)c(=O)c2cc(F)c(N3CCN(S(=O)(=O)c4ccc(Cl)cc4)CC3)cc21`
Response: 3850 nM

Prompt: Entry to check: CCc1ccc(CNCC(O)c2ccccc2)cc1 (centres undefined)
Response: 33600 nM

---

Tested on: OVCAR-4 ovarian
Test: NCI tumour cell line growth inhibition, 48 h
Quick reference for TGI among some compounds
The answer is to be given in µM; state only the numeric part.

CCN(CC)C(=S)N/N=C(\C)c1cccc(C)n1 | 4.24

Turning to the following compound.
Prompt: Can you share its TGI? I mean this compound: `Cc1cc2[nH]c(Cl)c(/C=C3\C(=O)Nc4ccccc43)c2cc1O`
Response: 25.9

---

Test system: SK-OV-3 ovarian
Assay: NCI tumour cell line growth inhibition, 48 h
Reported TGI is given for each of the following compounds.

COc1ccc2[nH]c(-c3ccccc3)c(/C=C(\C#N)S(=O)(=O)c3ccccc3)c2c1 | 66.7 µM
CCOC(=O)c1sc2nc(SC)nc3c2c1NCN3C1CC1 | > 100 µM
O=C(O)c1cc(C(=O)O)nc(C(=O)O)c1 | > 100 µM

Prompt: Looking for the measured TGI of Cc1ccc([N+](=O)[O-])cc1S(=O)(=O)Nc1ccc(C2=NN(C(=O)c3ccccc3)C(c3ccccc3)C2)cc1 (stereo unspecified) , can you help?
Response: 73.7 µM

Prompt: One more compound: `O=C(Oc1ccc(S(=O)(=O)F)cc1F)c1ccccc1Cl`
Response: > 100 µM

Prompt: Entry to check: `COc1cc(NCCCCCN=C(N)N)c2ncccc2c1`
Response: > 100 µM

Prompt: Do the same for Cc1cc(O)c(C(=O)O)c2c1C(=O)c1c(O)c(OCC(O)C(O)C(O)C(O)CO)c(O)c(O)c1C2=O (stereo unspecified) (tested in a mixture with another compound) please
Response: > 100 µM

Prompt: Next record, please: O=C(NN1C(=O)CS(=O)(=O)C1c1cccc(F)c1)c1ccncc1 (stereo unspecified)
Response: > 100 µM

Prompt: Repeat with `CSC1=NN(c2ccccc2)C(=O)C1=C(SC)SC`
Response: > 100 µM

Prompt: Okay, and `O=C(/C=C/c1ccc(Cl)cc1)/C=C/c1cc2ccccc2[nH]c1=O` ?
Response: 32.7 µM
